# Assayed target: Yer064c (UniProt P40041)
# Sequence: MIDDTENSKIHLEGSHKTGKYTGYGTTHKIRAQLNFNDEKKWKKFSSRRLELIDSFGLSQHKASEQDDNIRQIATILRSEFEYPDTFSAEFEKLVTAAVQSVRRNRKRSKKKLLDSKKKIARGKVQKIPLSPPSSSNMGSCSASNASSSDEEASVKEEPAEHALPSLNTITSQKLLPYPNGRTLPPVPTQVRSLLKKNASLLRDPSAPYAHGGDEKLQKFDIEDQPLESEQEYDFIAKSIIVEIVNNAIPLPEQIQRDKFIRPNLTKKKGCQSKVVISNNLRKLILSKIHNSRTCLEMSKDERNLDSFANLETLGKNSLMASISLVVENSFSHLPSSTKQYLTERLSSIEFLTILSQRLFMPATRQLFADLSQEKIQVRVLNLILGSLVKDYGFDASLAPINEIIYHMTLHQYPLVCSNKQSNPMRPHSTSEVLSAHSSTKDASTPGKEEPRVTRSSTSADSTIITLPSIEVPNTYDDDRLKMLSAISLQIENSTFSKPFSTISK
# Experiment summary: PBM E-score (8-mer binding enrichment) (E-score (-0.5 to 0.5)); higher = stronger / more preferred TF binding
# Test conditions: protein concentration: 200 nM; construct: GST-full length
The full ranking holds about 33,000 sequences; the median of “E-score (-0.5 to 0.5)” is about -0.036, and the highest 2% start at about 0.37. The sample holds the highest values, similar sequences and a random draw of the others, so the mix is not that of the screen.
# PBM E-score listing for each entry below
Number, no unit, nothing else.

Use the examples below as a reference point.
>>> numeric_readout("ACTCACTA")
0.346
>>> numeric_readout("ATCCCACG")
0.07
>>> numeric_readout("CCTAGTCA")
0.446
>>> numeric_readout("ACTCACAC")
0.364

Item: ACTCACTG Test system: Yer064c (UniProt P40041) Read-out: PBM E-score Value: ?
0.374

Another sequence: GGGAAACC
-0.0566

Another sequence: CTCAACCA
0.152

Another sequence: GCTAGTTA
0.00744

Another sequence: CCTAGTCG
0.263

Another sequence: ACTAGTCC
0.164

Another sequence: TGCATTAA
0.0992

----------
# PBM E-score listing for each entry below
# Assayed target: Yer064c (UniProt P40041)
# Sequence: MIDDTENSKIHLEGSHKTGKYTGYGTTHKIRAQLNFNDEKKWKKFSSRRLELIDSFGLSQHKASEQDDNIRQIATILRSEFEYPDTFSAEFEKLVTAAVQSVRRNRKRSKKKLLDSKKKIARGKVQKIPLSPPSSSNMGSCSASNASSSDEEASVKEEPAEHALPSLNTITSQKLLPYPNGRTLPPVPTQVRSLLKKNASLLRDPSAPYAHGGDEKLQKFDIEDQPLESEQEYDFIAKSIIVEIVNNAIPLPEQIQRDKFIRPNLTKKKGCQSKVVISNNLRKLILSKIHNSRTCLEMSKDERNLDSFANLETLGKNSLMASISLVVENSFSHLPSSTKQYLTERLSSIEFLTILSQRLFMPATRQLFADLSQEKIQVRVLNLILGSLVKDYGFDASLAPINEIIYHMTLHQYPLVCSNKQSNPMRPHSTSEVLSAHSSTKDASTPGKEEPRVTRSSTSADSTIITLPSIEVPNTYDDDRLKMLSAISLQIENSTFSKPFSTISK
# Experiment summary: PBM E-score (8-mer binding enrichment) (E-score (-0.5 to 0.5)); higher = stronger / more preferred TF binding
# Test conditions: protein concentration: 200 nM; construct: GST-full length
In all, about 33,000 sequences were measured (“E-score (-0.5 to 0.5)”: median about -0.036, highest 2% from about 0.37 on). This excerpt belongs to a sample that is enriched for the highest values.
Number, no unit, nothing else.

>>> numeric_readout("GGACTAAC")
0.367

As a next step, examine the sequence that follows.
Recorded PBM E-score for CGACTACG , please?
0.337
